Molecular target: T1, alpha-fetoprotein (AFP) (Homo sapiens, UniProt P02771 19-609)
T1 sequence: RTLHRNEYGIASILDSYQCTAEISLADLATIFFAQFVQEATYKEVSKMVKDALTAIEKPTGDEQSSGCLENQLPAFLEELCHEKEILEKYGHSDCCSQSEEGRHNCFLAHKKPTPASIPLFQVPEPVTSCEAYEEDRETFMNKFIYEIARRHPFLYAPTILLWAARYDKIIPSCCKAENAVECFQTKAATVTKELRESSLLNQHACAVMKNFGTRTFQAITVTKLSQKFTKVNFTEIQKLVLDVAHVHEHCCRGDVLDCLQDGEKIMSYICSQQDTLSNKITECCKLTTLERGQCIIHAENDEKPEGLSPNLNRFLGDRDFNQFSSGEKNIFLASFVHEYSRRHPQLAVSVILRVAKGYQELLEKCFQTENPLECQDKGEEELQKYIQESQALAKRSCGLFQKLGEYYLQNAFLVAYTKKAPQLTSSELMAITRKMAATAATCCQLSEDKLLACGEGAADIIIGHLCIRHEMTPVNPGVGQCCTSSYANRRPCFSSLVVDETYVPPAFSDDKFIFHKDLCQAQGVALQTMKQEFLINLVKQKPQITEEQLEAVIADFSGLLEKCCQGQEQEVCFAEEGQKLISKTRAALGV
Experiment: magnetic bead binding assay, TdT amplification, SA-POD, chronoamperometry; apparent Kd; TdT elongation after binding; Langmuir fit; 1x PBS, 25 °C, 30 min, 1300 rpm; 60 µg AFP-modified magnetic beads in 250 µL (effective AFP about 34 nM); washes 1x PBS 0.01% Tween 20; pH not stated
Settings: protein: native
endpoint name: Kd (nM)
Expressed in nM, but write only the number.

Fill in: Kd of AFP-L-TdT (ssDNA) DNA: GGCAGGAAGACAAACAAGCTTGGCGGCGGGAAGGTGTTTAAATTCCCGGGTCTGCGTGGTCTGTGGTGCTGTTTTTTT is ___ 32

Attribution: paper PMC7277757
